Tested on: PC-3
Experiment: NCI tumour cell line growth inhibition, 48 h
Active and inactive are the calls of the source. No stated cut-off is given here; in the data, active = GI50 up to about 1.1 µM and inactive = higher.
Your answer must be one of the following: 1 = active, -1 = inactive

Previously resolved entries follow.
CCCNC(=O)Cn1c(C)cc2ccccc21: -1
O=C1NC2C(=CC(O)C(O)C2O)c2cc3c(cc21)OCO3 (stereo unspecified): 1
C=C1C(=O)OC2C1CCC(=C)C1CC(O)C(=C)C12 (stereo unspecified): -1
CCC1CCC2c3c([nH]c4ccccc34)C3C(=O)N(c4ccc(OC)cc4)C(=O)C3C2C1 (stereo unspecified): -1
Cc1ccc(Cl)c2c(=O)c3ccc([N+](=O)[O-])cc3sc12: -1

// switching to the query compound
Q: Which outcome did this test record for the compound `CNC(=O)[C@H](Cc1ccccc1)NC(=O)N(CCC#N)CCN(C(=O)N[C@@H](Cc1ccccc1)C(=O)OC)c1ccccc1` ?
A: -1

* * *

Test system: UACC-257
Assay: NCI tumour cell line growth inhibition, 48 h
Calls of active or inactive are those of the source. No stated cut-off is given here; in the data, active = GI50 up to about 1.1 µM and inactive = higher.
Each entry below carries its reported GI50.

Example molecules with recorded GI50:
CCCN(CCCN)/[N+]([O-])=N\O: > 100 µM (inactive)
CCC1(CC)C(=O)N(C(=O)c2ccc(Cl)cc2)N(C(=O)c2ccccc2Cl)C1=O: > 100 µM (inactive)
Cc1c(Cl)c(S(N)(=O)=O)cc(S(N)(=O)=O)c1NC(=O)c1ccc(Cl)cc1: > 100 µM (inactive)
O=C(O)c1ccccc1/N=N/c1ccc2oc(=O)c(C(=O)Nc3ccccc3)cc2c1: 24.6 µM (inactive)
CC(C)C1=CC2=C(C(=O)C1=O)C13CCCC(C)(C)C1CC2OC3=O (centres undefined): 23.9 µM (inactive)
NC(Cc1cc(I)c(O)c(I)c1)C(=O)O (centres undefined): 293 µM (inactive)
Cc1ccc(S(=O)(=O)NC2(C=O)CCCC3CCCCC32)cc1 (centres undefined): > 100 µM (inactive)
CC1C2CC(C(C3C(=O)C4CC3C(C)(C)C4C)C2=O)C1(C)C (centres undefined): > 100 µM (inactive)

Please examine the following record next.
Q: Please look up its GI50: `COc1cc(NCc2ccc3oc(=O)c(-c4ccccc4)nc3c2)cc(OC)c1OC`
A: > 10 µM (inactive)

* * *

Each entry below carries its reported GI50.
Test system: HL-60
Experiment: NCI tumour cell line growth inhibition, 48 h
Active and inactive are the calls of the source. No stated cut-off is given here; in the data, active = GI50 up to about 1.1 µM and inactive = higher.

COc1ccc2oc(-c3cccnc3)cc(=O)c2c1: 52.5 µM (inactive)
CCC1(O)CN(CCOC)[C@H]2C[C@@H]1C(=O)c1[nH]c3ccccc3c12 (stereo partly specified): > 100 µM (inactive)
COc1ccc(C2C=C(c3ccccc3)Nc3nnnn32)cc1 (stereo unspecified): > 100 µM (inactive)

Q: Please look up its GI50: `CCOC(=O)N/N=C(/N)Cc1ccccc1`
A: > 100 µM (inactive)

Q: Please look up its GI50: Oc1nc(CC(O)c2ccc(Cl)c(Cl)c2)cc(-c2ccccc2)n1 (stereo unspecified)
A: 25.1 µM (inactive)

Q: Please look up its GI50: `O=C1c2ccccc2C(=O)N1CCN(CCN1C(=O)c2ccccc2C1=O)Cn1cccn1`
A: 27.4 µM (inactive)

Q: Please look up its GI50: `CCOC(=O)/C(=C/c1ccc(N(C)C)cc1)N(CC)CC`
A: 27.2 µM (inactive)

Q: Please look up its GI50: `N#Cc1c(-c2ccccc2)c2c([nH]c1=O)-c1cc([N+](=O)[O-])ccc1CCC2`
A: 35.2 µM (inactive)

Q: Please look up its GI50: `CN(C)c1ccc(/C=C/c2ccnc3ccc4ccccc4c23)cc1`
A: > 100 µM (inactive)

Q: Please look up its GI50: `CC(C)/C(=N\[N+](C)(C)C)c1ccccc1`
A: > 100 µM (inactive)

Q: Please look up its GI50: Cc1ccc2c(c1)CC1(Cc3c(C)cccc3C1=O)C2=O (stereo unspecified)
A: > 100 µM (inactive)

Data credit: ChEMBL document CHEMBL1201862
